Target: PRMT5 (Homo sapiens)
Construct: purchased Viva (custom protein)
Sequence (O14744 whole entry): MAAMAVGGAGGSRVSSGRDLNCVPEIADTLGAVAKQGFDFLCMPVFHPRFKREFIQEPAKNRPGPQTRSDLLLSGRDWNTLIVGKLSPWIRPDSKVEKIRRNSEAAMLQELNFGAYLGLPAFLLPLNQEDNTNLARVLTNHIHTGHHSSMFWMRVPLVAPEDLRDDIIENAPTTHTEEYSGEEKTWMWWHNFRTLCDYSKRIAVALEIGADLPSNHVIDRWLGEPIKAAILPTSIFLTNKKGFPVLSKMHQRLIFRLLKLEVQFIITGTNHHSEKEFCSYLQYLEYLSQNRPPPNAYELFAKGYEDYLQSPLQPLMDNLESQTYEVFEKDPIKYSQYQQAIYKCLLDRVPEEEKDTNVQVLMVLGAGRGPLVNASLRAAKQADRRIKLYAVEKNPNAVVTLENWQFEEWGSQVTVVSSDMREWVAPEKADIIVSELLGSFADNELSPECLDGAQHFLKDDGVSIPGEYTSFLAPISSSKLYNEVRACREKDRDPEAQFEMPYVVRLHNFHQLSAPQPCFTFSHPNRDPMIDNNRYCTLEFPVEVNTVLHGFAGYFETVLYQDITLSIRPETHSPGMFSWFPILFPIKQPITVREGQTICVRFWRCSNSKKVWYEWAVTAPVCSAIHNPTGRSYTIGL
Sequence (Q9BQA1 whole entry partner): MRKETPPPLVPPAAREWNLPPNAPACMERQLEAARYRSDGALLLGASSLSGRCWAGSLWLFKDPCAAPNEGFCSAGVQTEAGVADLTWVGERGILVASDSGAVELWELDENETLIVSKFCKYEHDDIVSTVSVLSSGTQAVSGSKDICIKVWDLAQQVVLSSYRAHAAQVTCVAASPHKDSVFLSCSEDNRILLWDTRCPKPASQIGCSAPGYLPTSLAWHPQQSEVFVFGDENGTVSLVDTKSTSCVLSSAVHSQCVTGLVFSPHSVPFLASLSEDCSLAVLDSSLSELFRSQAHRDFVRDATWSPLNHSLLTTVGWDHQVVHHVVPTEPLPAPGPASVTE
Experiment: PRMT5 biochemical IC50 assay with SAM as cofactor
Details: PRMT5, SAM as cofactor; read-out: SAM IC50
# IC50 listing for each entry below

Compound | IC50
CCc1cc(NC(=O)C(=O)N2C[C@@H](C)CC[C@@H]2c2ccc(CCN(C)C)c(Cl)c2)cnc1N [Compound 1402] | 50 to 500 nM
CNC(=O)c1ccc([C@@H]2CC[C@@H](C)CN2C(=O)C(=O)Nc2cnc(OC)c(C(N)=O)c2)s1 (single isomer, unassigned) [Compound 843] | > 500 nM
CN(C)c1cccc([C@@H]2CCCCN2C(=O)C(=O)Nc2cncc(C(N)=O)c2)c1 (single isomer, unassigned) [Compound 365] | 50 to 500 nM
Cc1cc(NC(=O)C(=O)N2C[C@@H](C)CC[C@@H]2c2cc3[nH]ncc3s2)cnc1N (single isomer, unassigned) [Compound 824] | 50 to 500 nM
COc1ncc(NC(=O)C(=O)N2C[C@@H](C)CC[C@@H]2c2ccc3nn(C)cc3c2)cc1C(N)=O (single isomer, unassigned) [Compound 1059] | 50 to 500 nM
CCc1cc(NC(=O)C(=O)N2C[C@H](C)CC[C@H]2c2ccc(N)nc2)cnc1N (single isomer, unassigned) [Compound 856] | > 500 nM

###

Tested on: HAP1 MTAP-deleted cell line
Assay: SDMA in-cell western assay, HAP1 MTAP-deleted
Format: cell-based
Settings: Homo sapiens, HAP1, SDMA in-cell western, HAP1 MTAP-deleted; read-out: HAP1 MTAP deleted IC50

Molecule | Target System | IC50
CCc1cc(NC(=O)C(=O)N2C[C@@H](C)CC[C@@H]2c2cccc(OC[C@H]3CCN(C)C3)c2)cnc1N [Compound 1179] | HAP1 MTAP-deleted cell line | < 100 nM
Cc1ccc([C@H]2CC[C@H](C)CN2C(=O)C(=O)Nc2cnc(N)c(C)c2)cn1 (single isomer, unassigned) [Compound 707] | HAP1 MTAP-deleted cell line | > 1000 nM
Cc1cc(NC(=O)C(=O)N2C[C@@H](C)CC[C@@H]2c2cccc(O)c2)cnc1N (racemic) [Compound 187] | HAP1 MTAP-deleted cell line | < 100 nM
C[C@@H]1CC[C@@H](c2ccc(F)c(Cl)c2)N(C(=O)C(=O)Nc2cncc(C(N)=O)c2)C1 (single isomer, unassigned) [Compound 513] | HAP1 MTAP-deleted cell line | > 1000 nM
COc1ncc(NC(=O)C(=O)N2C[C@H](C)CC[C@H]2c2ccc3[nH]ncc3c2)cc1C(N)=O (single isomer, unassigned) [Compound 465] | HAP1 MTAP-deleted cell line | > 1000 nM
CCc1cc(NC(=O)C(=O)N2C[C@@H](C)CC[C@@H]2c2ccc3sc([C@H]4CCN(C)C(=O)C4)nc3c2)cnc1N (single isomer, unassigned) [Compound 1136] | HAP1 MTAP-deleted cell line | < 100 nM

###

Target: PRMT5 (Homo sapiens)
Construct: purchased Viva (custom protein)
Test: PRMT5 biochemical IC50 assay with SAM as cofactor
Details: PRMT5, SAM as cofactor; read-out: SAM IC50

Molecule | Target System | IC50
COc1ncc(NC(=O)C(=O)N2C[C@@H](C)[C@@H](OC)C[C@@H]2c2ccc3scnc3c2)cc1C(N)=O (single isomer, unassigned) [Compound 1344] | PRMT5 (Homo sapiens) | > 0.5 µM
CNS(=O)(=O)c1cccc([C@@H]2CC[C@@H](C)CN2C(=O)C(=O)Nc2cnc(N)c(C)c2)c1 (racemic) [Compound 691] | PRMT5 (Homo sapiens) | 0.05 to 0.5 µM
Cc1cc(NC(=O)C(=O)N2C[C@@H](C)CC[C@@H]2[C@H]2CCC[C@@H](O)C2)cnc1N (single isomer, unassigned) [Compound 566] | PRMT5 (Homo sapiens) | > 0.5 µM
COc1ncc(NC(=O)C(=O)N2C[C@@H](C)CC[C@@H]2c2csc3ccccc23)cc1C(N)=O (racemic) [Compound 501] | PRMT5 (Homo sapiens) | > 0.5 µM
Cc1cc([C@@H]2CC[C@@H](C)CN2C(=O)C(=O)Nc2cncc(C(N)=O)c2)ccc1OC1CCOC1 (mixture of isomers) [Compound 171] | PRMT5 (Homo sapiens) | 0.05 to 0.5 µM
Cc1cc(NC(=O)C(=O)N2C[C@@H](C)CC[C@H]2C23CC(C(N)=O)(C2)C3)cnc1N (single isomer, unassigned) [Compound 1053] | PRMT5 (Homo sapiens) | > 0.5 µM
CCc1cc(NC(=O)C(=O)N2C[C@@H](C)CC[C@@H]2c2ccc3c(c2)OCCN3)cnc1N (racemic) [Compound 870] | PRMT5 (Homo sapiens) | 0.05 to 0.5 µM
CCc1cc(NC(=O)C(=O)N2C[C@@H](C)CC[C@@H]2c2ccc(N3CCN(CC)CC3)cc2)cnc1N (single isomer, unassigned) [Compound 1360] | PRMT5 (Homo sapiens) | > 0.5 µM
C[C@@H]1CC[C@@H](c2ccc(S(N)(=O)=O)cc2)N(C(=O)C(=O)Nc2cncc(C(N)=O)c2)C1 (single isomer, unassigned) [Compound 725] | PRMT5 (Homo sapiens) | 0.05 to 0.5 µM
Cc1ccc([C@@H]2CC[C@@H](C)CN2C(=O)C(=O)Nc2cncc(C(N)=O)c2)cc1C (racemic) [Compound 180] | PRMT5 (Homo sapiens) | 0.05 to 0.5 µM
COc1ncc(NC(=O)C(=O)N2CCCCC2c2ccccc2)cc1C(N)=O (stereo not shown) [Compound 138] | PRMT5 (Homo sapiens) | 0.05 to 0.5 µM
C[C@H]1CN(C(=O)C(=O)Nc2cnc(N)c(C3CC3)c2)[C@H](c2ccc3scnc3c2)CC1(F)F (single isomer, unassigned) [Compound 1207] | PRMT5 (Homo sapiens) | 0.05 to 0.5 µM
COc1ncc(NC(=O)C(=O)N2C[C@@H](C)CC[C@@H]2c2ccc3sc(C4CC(C)(C)N(C)C(C)(C)C4)nc3c2)cc1C(N)=O (single isomer, unassigned) [Compound 1108] | PRMT5 (Homo sapiens) | < 0.05 µM
Cc1ncc(NC(=O)C(=O)N2C[C@@H](C)CC[C@@H]2c2ccc3sc(C4CCN(C)CC4)nc3c2)cc1C(F)(F)F [Compound 1300] | PRMT5 (Homo sapiens) | 0.05 to 0.5 µM
CCc1cc(NC(=O)C(=O)N2C[C@@H](C)CC[C@@H]2c2ccc(N3CCOC4(CN(C)C4)C3)cc2)cnc1N (racemic) [Compound 1329] | PRMT5 (Homo sapiens) | 0.05 to 0.5 µM
C[C@H]1CC[C@H](c2ccc3sc(C4CCN(C)CC4)nc3c2)N(C(=O)C(=O)Nc2cnc(N)c(C(F)(F)F)c2)C1 [Compound 1117] | PRMT5 (Homo sapiens) | < 0.05 µM
Cc1cc([C@H]2CC[C@H](C)CN2C(=O)C(=O)Nc2cnc(N)c(C)c2)ccn1 (single isomer, unassigned) [Compound 593] | PRMT5 (Homo sapiens) | > 0.5 µM
CC(=O)N1CCC(c2cccc(C3CCCCN3C(=O)C(=O)Nc3cnc(N)c(C)c3)c2)CC1 (single isomer, unassigned) [Compound 94] | PRMT5 (Homo sapiens) | 0.05 to 0.5 µM
Cc1ccc([C@@H]2CC[C@@H](C)CN2C(=O)C(=O)Nc2cncc(C)c2)cc1 (single isomer, unassigned) [Compound 16] | PRMT5 (Homo sapiens) | > 0.5 µM
Cc1cc(NC(=O)C(=O)N2CCCCC2c2ccncc2)cnc1N (racemic) [Compound 36] | PRMT5 (Homo sapiens) | 0.05 to 0.5 µM
CCc1cc(NC(=O)C(=O)N2C[C@@H](C)CC[C@@H]2c2ccc3sc(C45CCC(CC4)N(C)C5)nc3c2)cnc1N [Compound 1217] | PRMT5 (Homo sapiens) | < 0.05 µM
Cc1cc(NC(=O)C(=O)N2C[C@@H](C)CC[C@@H]2c2ccc3sc(CCN4CCCC4)nc3c2)cnc1N [Compound 1296] | PRMT5 (Homo sapiens) | < 0.05 µM
C[C@@H]1CC[C@@H](c2ccc3sccc3c2)N(C(=O)C(=O)Nc2cncc(C(N)=O)c2)C1 (racemic) [Compound 409] | PRMT5 (Homo sapiens) | 0.05 to 0.5 µM
C[C@@H]1CC[C@@H](c2cncc(-n3cccn3)c2)N(C(=O)C(=O)Nc2cncc(C(N)=O)c2)C1 (racemic) [Compound 226] | PRMT5 (Homo sapiens) | 0.05 to 0.5 µM
Cc1cc(NC(=O)C(=O)N2C[C@H](C)CC[C@H]2c2ccc3c(c2)C(=O)NC3)cnc1N (single isomer, unassigned) [Compound 656] | PRMT5 (Homo sapiens) | > 0.5 µM

###

Target: PRMT5 (Homo sapiens)
Construct: purchased Viva (custom protein)
Test: PRMT5 biochemical IC50 assay with MTA as cofactor
Conditions: PRMT5, MTA as cofactor; read-out: MTA IC50
# IC50 listing for each entry below

Molecule | IC50
C[C@@H]1CC[C@@H](c2cc3cn[nH]c3s2)N(C(=O)C(=O)Nc2cncc(C(N)=O)c2)C1 (single isomer, unassigned) [Compound 943] | < 50 nM
Cc1nc2cc([C@@H]3CC[C@@H](C)CN3C(=O)C(=O)Nc3cncc(C(N)=O)c3)ccc2s1 (single isomer, unassigned) [Compound 693] | < 50 nM
C[C@H]1CC[C@H](c2ccc(Cl)c(Cl)c2)N(C(=O)C(=O)Nc2cncc(C(N)=O)c2)C1 (single isomer, unassigned) [Compound 488] | < 50 nM
NC(=O)CC1CCC2CN(C(=O)C(=O)Nc3cncc(C(N)=O)c3)CCC2C1 (stereo not drawn) [Compound 420] | 50 to 500 nM
Cc1ccc([C@@H]2CC[C@@H](C)CN2C(=O)C(=O)Nc2cncc(C(N)=O)c2)cn1 (single isomer, unassigned) [Compound 654] | < 50 nM
Cc1cc(NC(=O)C(=O)N2C[C@H](C)CC[C@H]2c2ccc(-c3ccn[nH]3)cc2)cnc1N (single isomer, unassigned) [Compound 675] | 50 to 500 nM
